# Binding Capacity per entry
# TARGET_OF_ASSAY: monoclonal antibody MV-001
# ASSAY_SUMMARY: ELISA, peptide-BSA coated, MV-001
# MEASUREMENT_CONTEXT: scale: code
REPORTED_ENDPOINT: Binding Capacity

- GEMRHQPC [p4702]: 3
- NELRHSTC [p4701]: 3
- QFKHDLC [p4391]: 2
- SAMRHSLC [p4732]: 2
- AEFSHWHC [p4737]: 2
- SEFKHGC [p4381]: 3
- EEFKYSC [p4393]: 2
- CHEFRH [p4802]: 3
- VELRHSRC [p4704]: 2
- DEHPFRHC [p4730]: 3
- YSMRHDAC [p4705]: 2
- ATFRHSPC [p4716]: 2
- SNFRHSVC [p4749]: 3
- CSEFKH [p4800]: 3
- APMYFPHC [p4717]: 2
- ATPLFRHC [p4723]: 3
- SNSEFRRC [p4743]: 3
- SAGSFRHC [p4710]: 3
- SHFRHGC [p4389]: 2
- SEFSHSSC [p4712]: 3
- QLFKHSPC [p4747]: 3
- TSVFRHC [p4383]: 3
- DGLLFKHC [p4741]: 3
- TGLMFKHC [p4736]: 2
- TPFRHTC [p4384]: 2
- TSFRHGC [p4382]: 2
- TLHEFRHC [p4715]: 3
- SQFRHYC [p4385]: 2
- TYFSHSLC [p4718]: 2
- SAFRHHC [p4387]: 2
- THMEFRRC [p4745]: 3
- SPNQFRHC [p4707]: 3
- LHIPFRHC [p4726]: 3
